# test protocol: PK analysis of 8M2D in transgenic mice (APPSWE), plasma
# condition info: mouse, in vivo, sc, 10 mg/kg, Day 13, 10 mg/kg, read-out: t1/2 (converted)
# Source text: Pharmacokinetics (PK) of 8M2D was further analyzed with various doses at days 1 and 13 in transgenic mice (APPSWE (B6; SJL 2576 Kha; Taconic)). See Hsiao et al., Correlative memory deficits, Aβ elevation, and amyloid plaques in transgenic mice. Science 274:99-102 (1996); and Haugabook et al., Reduction of Abeta accumulation in the Tg2576 animal model of Alzheimer's disease after oral administration of the phosphatidyl-inositol kinase inhibitor wortmannin. Faseb J 15:16-18 (2001).
Square brackets hold non-standard residues; d marks the D form. Peptide text beside a SMILES is read from it.
recorded metric: half-life (h)
Give bare numbers, in h.

Asked: Endpoint output: half-life of CC(=O)N[C@H](CC(=O)O)C(=O)N[C@@H](CCC(=O)O)C(=O)N[C@@H](CCC(=O)O)C(=O)N[C@@H](CCC(=O)O)C(=O)N[C@@H](CC(=O)O)C(=O)N[C@@H](CCC(=O)O)C(=O)N[C@@H](CCC(=O)O)C(=O)N[C@@H](CC(C)C)C(N)=O [8M2D, Ac-dEEEDEEL-NH2] (Ac-[dD]EEEDEEL-NH2) . Value?
Given back: 8.4
